The origin of these recorded values is ChEMBL document CHEMBL4251594.

Species: Gallus gallus
Experiment: Activation of actin-stimulated chicken gizzard smooth muscle myosin S1 fragment ATPase activity at 100 uM after 10 mins by spectrophotometric analysis relative to control
measuredMetric: Activity (%)

Give the reported value of Activity for this record: O=C(NCCCc1ccccc1)NCc1ccccc1
-3.7

a = CN(C)S(=O)(=O)c1ccc(CCNC(=O)NCCCc2ccccc2)cc1
b = O=C(NCCCc1ccccc1)NCCc1ccccc1
Decide: a or b , by lowest recorded Activity. # reply format: chosen label
b

P = COc1ccc(CCNC(=O)NCCCc2ccccc2)cc1OC
Q = Cc1ccc2c(c1)C(=O)[C@]1(O)CCN(c3ccccc3)C1=N2
Please tell me which of the two, P or Q , has the higher reported Activity value. Respond using the label that marks the chosen record.
P

a = COc1ccccc1CCNC(=O)NCCCc1ccccc1
b = COC(=O)N1CCN(Cc2cccc(NC(=O)Nc3ccc(C)nc3)c2F)CC1 [OMECAMTIV MECARBIL]
Hello, I am sorting some records. Could you say if a or b has the smaller Activity value? # respond with the chosen item's label
b

----------
Species: Bos taurus
Experiment: Activation of actin-stimulated bovine cardiac myosin S1 fragment ATPase activity in sarcomere at 10 uM after 10 mins by spectrophotometric analysis relative to control
measuredMetric: Activity (%)

Examples with answers:
Please report Activity for the following molecule: CN(C)S(=O)(=O)c1ccc(CCNC(=O)N2CCC(c3ccccc3)CC2)cc1
40.7

Read off the recorded Activity for COc1cccc(CCNC(=O)NCCCc2ccccc2)c1
35

Tell me its Activity given COc1ccc(CCNC(=O)NCCCCc2ccccc2)cc1OC as the entry.
32.5

A = NS(=O)(=O)c1ccc(CNC(=O)NCCCc2ccccc2)cc1
B = O=C(NCCCc1ccc(F)cc1)NCc1ccccc1
Sorting by Activity in descending order, would A or B appear first? Write down the label attached to your selection.
A
(A: 39.6%, B: 9.5%)

a = CN(CCCc1ccccc1)C(=O)N(C)CCc1ccc(S(=O)(=O)N(C)C)cc1
b = CCN(CCc1ccc(S(=O)(=O)N(C)C)cc1)C(=O)NCCCc1ccccc1
Pick the one with the larger Activity: a vs b Which one? Tell me its label.
a
(a: 69%, b: 39.5%)

----------
Species on record: Bos taurus
Assay: Activation of actin-stimulated bovine cardiac myosin S1 fragment ATPase activity in sarcomere at 10 uM after 10 mins by spectrophotometric analysis relative to control
measuredMetric: Activity (%)

// below: answered compounds
Provide only the value of recorded Activity for CCN(CCCc1ccccc1)C(=O)N(CC)CCc1ccc(S(=O)(=O)N(C)C)cc1
30.3

Give the value of Activity reported for the following: COc1ccc(S(N)(=O)=O)c(CCNC(=O)NCCCc2ccccc2)c1
29.4

Read off the recorded Activity for O=C(NCCCc1ccccc1)NCCc1ccc(F)cc1
38.6

# return recorded Activity for input NS(=O)(=O)c1ccc(CCNC(=O)NCCCCc2ccccc2)cc1
36.6

Let me know recorded Activity for Nc1ccc(CCNC(=O)NCCCc2ccccc2)cc1 , thanks.
55.2

Provide Activity value for the following compound: COC(=O)N1CCN(Cc2cccc(NC(=O)Nc3ccc(C)nc3)c2F)CC1 [OMECAMTIV MECARBIL]
58

a = CN(C)S(=O)(=O)c1ccc(CCCNC(=O)NCc2ccccc2)cc1
b = O=C(NCCCc1ccccc1)NCCc1ccccc1F
c = COc1ccccc1CCNC(=O)NCCCc1ccccc1
Parameters: sort_field (Activity), sort_dir (desc). # respond with the labels, arranged in the requested order
c, b, a
(c: 95.1%, b: 65.4%, a: 20.8%)

1 = CN(CCCc1ccccc1)C(=O)NCCc1ccc(S(=O)(=O)N(C)C)cc1
2 = Cc1ccc(CCNC(=O)NCCCc2ccccc2)cc1
3 = COc1ccc(CCCNC(=O)NCc2ccccc2)cc1
Please give the order of these compounds when sorted by Activity, largest value leading. Ranked list of labels, please, in the requested order.
2, 1, 3
(2: 73.8%, 1: 47.6%, 3: 30.5%)

----------
Species on record: Bos taurus
Assay: Activation of actin-stimulated bovine cardiac myosin S1 fragment ATPase activity in sarcomere at 10 uM after 10 mins by spectrophotometric analysis relative to control
measuredMetric: Activity (%)

Consider the following illustrative entries.
Supply Activity value. Item: CN(C)S(=O)(=O)c1ccc(CNC(=O)NCCCc2ccccc2)cc1
34.5

Tell us which Activity value is on record for O=C(NCCCc1ccccc1)NCCc1ccc(Cl)cc1
31

Please give measured Activity of the following entry: CN(CCc1ccc(S(=O)(=O)N(C)C)cc1)C(=O)NCCCc1ccccc1
52.3

Complete the entry with Activity for COc1ccc(CNC(=O)NCCCc2ccccc2)cc1OC
38.8

Report Activity for COc1ccc(CNC(=O)NCCCc2ccccc2)cc1
25.4

Answer with the recorded Activity of CN(C)S(=O)(=O)c1ccc(C2CCN(C(=O)NCCc3ccccc3)CC2)cc1 only.
32.6

P = COc1ccc(CCCNC(=O)NCCc2ccc(S(N)(=O)=O)cc2)cc1
Q = NS(=O)(=O)c1ccc(CCNC(=O)NCCCc2ccc(F)cc2)cc1
R = COc1ccc(CCNC(=O)NCCCc2ccccc2)cc1OC
S = CN(C)S(=O)(=O)c1ccc(C2CCN(C(=O)NCCCc3ccccc3)CC2)cc1
Put these in order: smallest Activity first, largest last. List the labels in the requested order.
Q, P, S, R
(Q: 19.1%, P: 34.8%, S: 85.1%, R: 122%)

a = COc1ccc(CCNC(=O)NCCCc2ccccc2)cc1
b = CN(C)S(=O)(=O)c1ccc(CCNC(=O)NCCCc2ccc(F)cc2)cc1
Decide: a or b , by lowest recorded Activity. Give the label of your selection.
b

----------
Species: Bos taurus
Assay: Activation of actin-stimulated bovine cardiac myosin S1 fragment ATPase activity in sarcomere at 10 uM after 10 mins by spectrophotometric analysis relative to control
measuredMetric: Activity (%)

Using known records, supply Activity for COc1ccc(CCCNC(=O)NCCc2ccc(OC)c(OC)c2)cc1
38.4

State, in one line, measured Activity of O=C(NCCCc1ccccc1)NCCc1ccc([N+](=O)[O-])cc1
56.2

Could you please provide reported Activity for CN(C)c1ccc(CCNC(=O)NCCCc2ccccc2)cc1 ? Thanks!
45.3

// fetch Activity given entry CC(C)N(CCc1ccc(S(=O)(=O)N(C)C)cc1)C(=O)N(C)CCCc1ccccc1
40.6

----------
Species on record: Bos taurus
Assay: Activation of actin-stimulated bovine cardiac myosin S1 fragment ATPase activity in sarcomere at 10 uM after 10 mins by spectrophotometric analysis relative to control
measuredMetric: Activity (%)

Supply reported Activity belonging to this compound: CN(C)S(=O)(=O)c1ccc(CCNC(=O)NCCCc2ccccc2)cc1
91.6

Assign Activity to the following record: O=C(NCCCc1ccccc1)NCCc1ccccc1
51.1

Hello, please tell me recorded Activity for this one: CN(C)S(=O)(=O)c1ccc(CNC(=O)N2CCC(c3ccccc3)CC2)cc1
27.6

State, in one line, measured Activity of NS(=O)(=O)c1ccc(CCNC(=O)NCCCc2ccccc2)cc1
41.9

Quickly give me recorded Activity for CC(C)c1ccc(CCNC(=O)NCCCc2ccccc2)cc1
33.3

Query Activity for O=C(NCCCc1ccccc1)NCCc1ccc(Cl)cc1Cl
37.3

Provide Activity value for the following compound: CC(C)N(CCc1ccc(S(=O)(=O)N(C)C)cc1)C(=O)NCCCc1ccccc1
38.1

For the compound NS(=O)(=O)c1ccc(NC(=O)NCCCc2ccccc2)cc1 , report Activity.
31.8

1 = CN(C)S(=O)(=O)c1ccc(C2CCN(C(=O)NCc3ccccc3)CC2)cc1
2 = O=C(NCCCc1ccccc1)NCc1ccccc1
Please choose the item with the lower Activity value from this pair: 1 and 2 Mark your selection by writing its label.
1
(1: 36.9%, 2: 53.3%)
